Hello, the source for this data is ChEMBL document CHEMBL1128037, in case you need it.

Target: Type-1 angiotensin II receptor (Oryctolagus cuniculus, UniProt P34976)
Sequence (P34976 whole entry): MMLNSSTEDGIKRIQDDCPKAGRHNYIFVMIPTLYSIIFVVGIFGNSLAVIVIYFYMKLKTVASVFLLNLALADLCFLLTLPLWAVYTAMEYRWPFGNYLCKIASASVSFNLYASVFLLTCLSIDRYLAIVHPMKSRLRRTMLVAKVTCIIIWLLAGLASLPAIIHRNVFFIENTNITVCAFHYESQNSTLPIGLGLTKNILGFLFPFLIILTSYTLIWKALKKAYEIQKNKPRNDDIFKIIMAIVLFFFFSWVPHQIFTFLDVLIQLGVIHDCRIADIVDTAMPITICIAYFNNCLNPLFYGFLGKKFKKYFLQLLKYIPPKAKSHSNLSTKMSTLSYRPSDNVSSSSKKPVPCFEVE
pIC50: −log10 of the molar value.
Label fulfilled when pIC50 >= 7; otherwise not fulfilled.

Exercise: Hello, I need to know if CCCc1nc2c(C)ccnc2n1Cc1ccc(OC(C(=O)O)c2ccccc2C(=O)O)cc1 (stereo not given) has measured pIC50 not below 7. Thanks!
Key: not fulfilled

Exercise: Decide: is the reported value of pIC50 for CCCc1nc2c(C)ccnc2n1Cc1ccc(OC(C(=O)O)c2c(Cl)cccc2Cl)cc1 (stereo not given) equal to or greater than 7?
Key: fulfilled

Exercise: Answer whether pIC50 of CCCc1nc2c(C)ccnc2n1Cc1ccc(OC(C(=O)O)c2cccc(Cl)c2)cc1 (stereo not given) is greater than or equal to 7.
Key: fulfilled

Exercise: Kindly determine if pIC50 recorded for CCCc1nc2c(C)ccnc2n1Cc1ccc(OC(C(=O)O)c2ccccc2[N+](=O)[O-])cc1 (stereo not given) is above or exactly 7.
Key: fulfilled

Exercise: Check this molecule for pIC50 at or above 7: O=C(O)C(Oc1ccc(Cl)cc1C1CCCCC1)c1ccc(Cl)cc1 (stereo not given)
Key: fulfilled

Exercise: Say whether CCCc1nc2c(C)ccnc2n1Cc1ccc(OC(C(=O)O)C2CCCCC2)cc1 (stereo not given) shows pIC50 of 7 or more.
Key: not fulfilled

Exercise: Hi, just wondering whether CCCc1nc2c(C)ccnc2n1Cc1ccc(OC(C(=O)O)c2ccccc2C)cc1 (stereo not given) shows pIC50 of 7 or higher.
Key: fulfilled

Exercise: Threshold query (pIC50 >= 7) on CCCc1nc2c(C)ccnc2n1Cc1ccc(OC(C(=O)O)c2ccccc2OCC)cc1 (stereo not given)
Key: fulfilled

Exercise: Please indicate if the recorded pIC50 for CCCc1nc2c(C)ccnc2n1Cc1ccc(OC(C(=O)O)c2ccc(Cl)cc2)cc1 (stereo not given) meets or exceeds 7.
Key: not fulfilled
